Data credit: paper PMC9516332

assayed.system: panel of 255 wild-type kinases (Homo sapiens, UniProt Q9UF33)
Sequence (Q9UF33 23-1036): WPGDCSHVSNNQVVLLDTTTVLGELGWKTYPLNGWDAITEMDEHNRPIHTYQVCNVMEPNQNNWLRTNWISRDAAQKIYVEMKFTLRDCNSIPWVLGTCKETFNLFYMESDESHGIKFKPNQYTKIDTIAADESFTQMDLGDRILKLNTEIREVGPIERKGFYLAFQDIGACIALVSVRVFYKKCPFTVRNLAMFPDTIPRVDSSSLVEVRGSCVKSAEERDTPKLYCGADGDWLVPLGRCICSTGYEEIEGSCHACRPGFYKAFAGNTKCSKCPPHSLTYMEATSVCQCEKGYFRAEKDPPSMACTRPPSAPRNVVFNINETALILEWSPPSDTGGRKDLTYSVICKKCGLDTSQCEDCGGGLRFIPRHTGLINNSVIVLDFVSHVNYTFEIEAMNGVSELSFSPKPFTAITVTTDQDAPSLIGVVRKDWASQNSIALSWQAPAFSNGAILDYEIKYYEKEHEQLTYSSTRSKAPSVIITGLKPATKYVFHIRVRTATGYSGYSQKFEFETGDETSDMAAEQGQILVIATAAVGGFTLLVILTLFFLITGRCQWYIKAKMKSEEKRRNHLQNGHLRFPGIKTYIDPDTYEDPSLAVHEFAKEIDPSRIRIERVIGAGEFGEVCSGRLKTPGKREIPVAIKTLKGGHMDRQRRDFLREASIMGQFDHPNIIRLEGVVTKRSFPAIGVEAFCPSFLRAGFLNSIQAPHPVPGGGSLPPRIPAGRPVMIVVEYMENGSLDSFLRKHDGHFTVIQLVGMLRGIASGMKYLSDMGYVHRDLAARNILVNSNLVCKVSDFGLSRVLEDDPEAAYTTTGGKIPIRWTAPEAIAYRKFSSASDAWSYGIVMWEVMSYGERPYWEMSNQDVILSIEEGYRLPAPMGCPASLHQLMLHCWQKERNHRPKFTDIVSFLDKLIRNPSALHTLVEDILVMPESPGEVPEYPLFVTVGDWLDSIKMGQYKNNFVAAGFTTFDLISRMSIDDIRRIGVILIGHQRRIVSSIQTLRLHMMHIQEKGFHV
protocol.text: Kinase panel profiling at 1 µmol/L (MSA or IMAP), percentage inhibition
Assay type: biochemical
experimental.context: kinase EPHA6; 1 µmol/L single concentration; read-out: %-inhibition at 1 µmol/L, EPHA6
property: inhibition at 1 µM (%)
Output spec: scalar in %, unitless text.

Record request: inhibition at 1 µM value, item CO[C@]1(C(=O)N[C@@H](C)c2ccc(-n3cc(F)cn3)nc2)CC[C@H](c2nc(C)cc(Nc3cc(C)[nH]n3)n2)CC1 [pralsetinib]
87

Quick one: inhibition at 1 µM of CCc1nc(C(N)=O)c(Nc2ccc(N3CCC(N4CCN(C)CC4)CC3)c(OC)c2)nc1NC1CCOCC1 [gilteritinib] ?
94

Which inhibition at 1 µM reading was recorded for the compound CN1CCN(c2ccc(C(=O)Nc3n[nH]c4ccc(Cc5cc(F)cc(F)c5)cc34)c(NC3CCOCC3)c2)CC1 [entrectinib] ?
44

Looking for the measured inhibition at 1 µM of CCN1CCN(c2ccc(Nc3cc(N(C)C(=O)Nc4c(Cl)c(OC)cc(OC)c4Cl)ncn3)cc2)CC1 [infigratinib] , can you help?
28

###

assayed.system: panel of 255 wild-type kinases (Homo sapiens, UniProt Q7KZI7)
Sequence (Q7KZI7 whole entry): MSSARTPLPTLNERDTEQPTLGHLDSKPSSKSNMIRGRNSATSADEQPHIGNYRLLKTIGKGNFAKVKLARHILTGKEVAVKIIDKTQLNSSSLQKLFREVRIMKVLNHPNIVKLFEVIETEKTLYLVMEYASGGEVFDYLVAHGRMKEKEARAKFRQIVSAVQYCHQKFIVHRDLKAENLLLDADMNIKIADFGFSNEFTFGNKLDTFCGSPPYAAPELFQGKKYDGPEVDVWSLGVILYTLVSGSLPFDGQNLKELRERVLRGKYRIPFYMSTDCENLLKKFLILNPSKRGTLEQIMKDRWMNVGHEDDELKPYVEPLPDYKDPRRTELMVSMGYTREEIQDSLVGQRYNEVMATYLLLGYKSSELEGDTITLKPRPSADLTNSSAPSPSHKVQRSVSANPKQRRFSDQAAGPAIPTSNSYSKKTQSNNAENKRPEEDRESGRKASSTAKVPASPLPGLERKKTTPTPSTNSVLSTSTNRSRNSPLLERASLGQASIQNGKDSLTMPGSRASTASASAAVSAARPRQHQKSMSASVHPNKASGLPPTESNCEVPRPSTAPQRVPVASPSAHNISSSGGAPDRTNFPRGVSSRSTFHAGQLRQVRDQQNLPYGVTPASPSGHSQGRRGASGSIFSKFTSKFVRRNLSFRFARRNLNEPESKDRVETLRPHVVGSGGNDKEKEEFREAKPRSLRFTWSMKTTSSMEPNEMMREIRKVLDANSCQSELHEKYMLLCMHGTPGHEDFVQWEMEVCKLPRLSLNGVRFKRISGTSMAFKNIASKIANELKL
protocol.text: Kinase panel profiling at 1 µmol/L (MSA or IMAP), percentage inhibition
Format: biochemical
experimental.context: MARK2; 1 µmol/L single concentration; read-out: %-inhibition, MARK2
// values below are reported inhibition at 1 µM
Could you give me the number in %? Just the number is fine.

Record excerpt, results attached:
mol	unit.of.measure	inhibition at 1 µM
FC(F)(F)c1ccc(CNc2ccc(Cc3c[nH]c4ncc(Cl)cc34)cn2)cn1	%	5.3
CCN1CCN(c2ccc(Nc3cc(N(C)C(=O)Nc4c(Cl)c(OC)cc(OC)c4Cl)ncn3)cc2)CC1	%	-9

Reported inhibition at 1 µM, compound Cn1cnc2c(F)c(Nc3ccc(Br)cc3F)c(C(=O)NOCCO)cc21 : ____
-6

###

Tested on: 134 cancer cell lines
protocol.text: Cell viability assay (ATPlite, 72 hours), IC50 on cancer cell line panel
experimental.context: Homo sapiens, DU-4475, read-out: IC50 in cell proliferation assay
Listed next: entries and their corresponding IC50.
Write it as a number; the unit µM goes unstated.

mol	IC50 (µM)
COc1cc(N2CCC(N3CCN(C)CC3)CC2)ccc1Nc1ncc(Cl)c(Nc2ccccc2P(C)(C)=O)n1	1.79

What value of IC50 has been recorded for this entry: C=CC(=O)N1CCC([C@@H]2CCNc3c(C(N)=O)c(-c4ccc(Oc5ccccc5)cc4)nn32)CC1
18.1

# get_value(readout='IC50', item= CCn1c(=O)c(-c2cc(NC(=O)Nc3ccccc3)c(F)cc2Br)cc2cnc(NC)cc21 )
3.38

###

Tested on: 134 cancer cell lines
protocol.text: Cell viability assay (ATPlite, 72 hours), IC50 on cancer cell line panel
experimental.context: Homo sapiens, MDA-MB-453, read-out: IC50 in cell proliferation assay
This section presents compounds with their documented IC50 values.
Entry rule: numbers only, all in µM.

mol	unit.of.measure	IC50
COc1cc(N2CCC(N3CCN(C)CC3)CC2)ccc1Nc1ncc(Cl)c(Nc2ccccc2P(C)(C)=O)n1	µM	6.65

Read the next record carefully.
Name the recorded IC50 for CO[C@@H]1[C@H](N(C)C(=O)c2ccccc2)C[C@H]2O[C@]1(C)n1c3ccccc3c3c4c(c5c6ccccc6n2c5c31)C(=O)NC4 .
7.64

###

System: 134 cancer cell lines
protocol.text: Cell viability assay (ATPlite, 72 hours), IC50 on cancer cell line panel
experimental.context: Homo sapiens, SU-DHL-6, read-out: IC50 in cell proliferation assay, cell line SU-DHL-6
property: log10 IC50 (log10 of the value in nM)
Would you kindly interpret these values as log10 of IC50 expressed in nM?

Form field: reported log10 IC50 of CN1CCN(c2ccc(C(=O)Nc3n[nH]c4ccc(Cc5cc(F)cc(F)c5)cc34)c(NC3CCOCC3)c2)CC1
3.89

// query log10 IC50 value for entry Cc1nc(NC(=O)N2CCC[C@H]2C(N)=O)sc1-c1ccnc(C(C)(C)C(F)(F)F)c1
3.19

Could you share which log10 IC50 value was measured for C[C@H](Nc1ncnc2nc[nH]c12)c1cc2cccc(Cl)c2c(=O)n1-c1ccccc1 ?
0.25

For the compound Cc1cc(Nc2ncc(Cl)c(Nc3ccccc3S(=O)(=O)C(C)C)n2)c(OC(C)C)cc1C1CCNCC1 , what log10 IC50 is on record?
3.47

Given the entry CC(C)(C)c1nc(-c2cccc(NS(=O)(=O)c3c(F)cccc3F)c2F)c(-c2ccnc(N)n2)s1 , report its measured log10 IC50.
3.42

###

assayed.system: panel of 255 wild-type kinases (Homo sapiens, UniProt Q8TDC3)
Sequence (Q8TDC3 whole entry): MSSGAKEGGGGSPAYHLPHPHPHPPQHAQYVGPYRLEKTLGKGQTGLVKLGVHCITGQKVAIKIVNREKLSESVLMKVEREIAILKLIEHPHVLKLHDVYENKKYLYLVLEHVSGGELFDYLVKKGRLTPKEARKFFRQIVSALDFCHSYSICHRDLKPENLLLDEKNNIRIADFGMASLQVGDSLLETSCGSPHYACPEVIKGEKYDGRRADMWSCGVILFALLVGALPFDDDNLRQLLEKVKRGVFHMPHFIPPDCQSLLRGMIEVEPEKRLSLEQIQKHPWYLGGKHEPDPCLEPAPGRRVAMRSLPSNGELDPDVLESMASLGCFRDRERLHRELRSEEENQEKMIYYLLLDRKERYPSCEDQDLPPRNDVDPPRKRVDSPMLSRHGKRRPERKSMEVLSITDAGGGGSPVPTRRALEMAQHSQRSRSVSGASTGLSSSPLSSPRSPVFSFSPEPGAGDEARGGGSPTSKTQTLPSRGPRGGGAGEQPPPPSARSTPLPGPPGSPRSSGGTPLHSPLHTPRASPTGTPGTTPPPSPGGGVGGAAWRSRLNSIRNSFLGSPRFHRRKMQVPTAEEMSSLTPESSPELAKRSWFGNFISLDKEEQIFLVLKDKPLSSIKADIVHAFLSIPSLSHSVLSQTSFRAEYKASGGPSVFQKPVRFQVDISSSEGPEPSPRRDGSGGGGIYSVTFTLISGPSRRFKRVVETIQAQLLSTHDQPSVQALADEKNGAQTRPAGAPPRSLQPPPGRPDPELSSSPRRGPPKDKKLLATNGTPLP
protocol.text: Kinase panel profiling at 1 µmol/L (MSA or IMAP), percentage inhibition
Assay type: biochemical
experimental.context: BRSK1 kinase assay; 1 µmol/L single concentration; read-out: %-inhibition BRSK1
The entries below come with measured inhibition at 1 µM values attached.
Give the quantity in %, number only.

Solved cases (2 shown):
mol	property	unit.of.measure	observed
Cn1cnc2c(F)c(Nc3ccc(Br)cc3Cl)c(C(=O)NOCCO)cc21	inhibition at 1 µM	%	-1.75
Cc1nc(NC(=O)N2CCC[C@H]2C(N)=O)sc1-c1ccnc(C(C)(C)C(F)(F)F)c1	inhibition at 1 µM	%	12

Quick one: inhibition at 1 µM of C[C@H](Nc1ncnc2nc[nH]c12)c1cc2cccc(Cl)c2c(=O)n1-c1ccccc1 ?
0.274

Quick one: inhibition at 1 µM of CN1CCN(c2ccc(C(=O)Nc3n[nH]c4ccc(Cc5cc(F)cc(F)c5)cc34)c(NC3CCOCC3)c2)CC1 ?
8

###

assayed.system: panel of 255 wild-type kinases (Homo sapiens, UniProt Q14680)
Sequence (Q14680 whole entry): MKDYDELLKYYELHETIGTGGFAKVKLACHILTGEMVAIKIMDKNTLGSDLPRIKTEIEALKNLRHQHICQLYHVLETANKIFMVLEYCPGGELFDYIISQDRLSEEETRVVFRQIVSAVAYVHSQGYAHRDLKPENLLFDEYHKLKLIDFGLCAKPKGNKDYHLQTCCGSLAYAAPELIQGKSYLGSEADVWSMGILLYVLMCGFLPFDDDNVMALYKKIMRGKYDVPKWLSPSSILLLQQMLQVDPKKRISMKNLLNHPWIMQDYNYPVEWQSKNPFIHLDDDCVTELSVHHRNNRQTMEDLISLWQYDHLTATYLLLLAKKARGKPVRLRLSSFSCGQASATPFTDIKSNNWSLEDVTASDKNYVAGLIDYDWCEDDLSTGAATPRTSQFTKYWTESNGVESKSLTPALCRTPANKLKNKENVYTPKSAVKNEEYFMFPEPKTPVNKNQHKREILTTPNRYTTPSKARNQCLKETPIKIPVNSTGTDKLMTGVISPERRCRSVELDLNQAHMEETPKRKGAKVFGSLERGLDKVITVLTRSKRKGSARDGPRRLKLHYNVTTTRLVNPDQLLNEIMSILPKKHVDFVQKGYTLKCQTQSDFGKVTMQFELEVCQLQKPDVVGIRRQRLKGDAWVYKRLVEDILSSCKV
protocol.text: Kinase panel profiling at 1 µmol/L (MSA or IMAP), percentage inhibition
Assay type: biochemical
experimental.context: MELK; 1 µmol/L single concentration; read-out: %-inhibition, MELK
property: inhibition at 1 µM (%)
Could you give me the number in %? Just the number is fine.

compound	assayed.system	unit.of.measure	inhibition at 1 µM
CCN1CCN(c2ccc(Nc3cc(N(C)C(=O)Nc4c(Cl)c(OC)cc(OC)c4Cl)ncn3)cc2)CC1 [infigratinib]	panel of 255 wild-type kinases (Homo sapiens, UniProt Q14680)	%	-2

Can you look up inhibition at 1 µM on panel of 255 wild-type kinases (Homo sapiens, UniProt Q14680) for CO[C@]1(C(=O)N[C@@H](C)c2ccc(-n3cc(F)cn3)nc2)CC[C@H](c2nc(C)cc(Nc3cc(C)[nH]n3)n2)CC1 [pralsetinib] ?
3.6

For panel of 255 wild-type kinases (Homo sapiens, UniProt Q14680), provide inhibition at 1 µM of COc1ccc(CN2C3CC2CN(c2ccc(-c4cc(OCC(C)(C)O)cn5ncc(C#N)c45)cn2)C3)cn1 [selpercatinib] please.
62

Give panel of 255 wild-type kinases (Homo sapiens, UniProt Q14680) inhibition at 1 µM for CCn1c(=O)c(-c2cc(NC(=O)Nc3ccccc3)c(F)cc2Br)cc2cnc(NC)cc21 [ripretinib]
30

Report inhibition at 1 µM for CCN1C(=O)N(c2c(F)c(OC)cc(OC)c2F)Cc2cnc3[nH]c(CN4CCOCC4)cc3c21 [pemigatinib] tested on panel of 255 wild-type kinases (Homo sapiens, UniProt Q14680).
0.738

API: value(readout=inhibition at 1 µM, system=panel of 255 wild-type kinases (Homo sapiens, UniProt Q14680)) for record O=C(Nc1cnn2ccc(N3CCC[C@@H]3c3cc(F)ccc3F)nc12)N1CC[C@H](O)C1 [larotrectinib]
-1.52

// fetch panel of 255 wild-type kinases (Homo sapiens, UniProt Q14680) inhibition at 1 µM for Cc1cc(Nc2ncnc3ccc(NC4=NC(C)(C)CO4)cc23)ccc1Oc1ccn2ncnc2c1 [tucatinib]
0.809

Give inhibition at 1 µM (panel of 255 wild-type kinases (Homo sapiens, UniProt Q14680)) of the following compound: Cc1nc(NC(=O)N2CCC[C@H]2C(N)=O)sc1-c1ccnc(C(C)(C)C(F)(F)F)c1 [alpelisib]
0.22

What inhibition at 1 µM appears in the records for this compound with panel of 255 wild-type kinases (Homo sapiens, UniProt Q14680)? Cn1cnc2c(F)c(Nc3ccc(Br)cc3Cl)c(C(=O)NOCCO)cc21 [selumetinib]
-2.6

Give panel of 255 wild-type kinases (Homo sapiens, UniProt Q14680) inhibition at 1 µM for C[C@H]1Oc2cc(cnc2N)-c2c(nn(C)c2C#N)CN(C)C(=O)c2ccc(F)cc21 [lorlatinib]
4

Field: inhibition at 1 µM (panel of 255 wild-type kinases (Homo sapiens, UniProt Q14680)). Entry: COC(=O)N[C@@H](C)CNc1nccc(-c2cn(C(C)C)nc2-c2cc(Cl)cc(NS(C)(=O)=O)c2F)n1 [encorafenib]
4.48

Hello, I am looking for reported inhibition at 1 µM with panel of 255 wild-type kinases (Homo sapiens, UniProt Q14680) for FC(F)(F)c1ccc(CNc2ccc(Cc3c[nH]c4ncc(Cl)cc34)cn2)cn1 [pexidartinib] . Could you help?
3

Fill in the recorded inhibition at 1 µM for this compound, with panel of 255 wild-type kinases (Homo sapiens, UniProt Q14680) as test system: C=CC(=O)N1CCC([C@@H]2CCNc3c(C(N)=O)c(-c4ccc(Oc5ccccc5)cc4)nn32)CC1 [zanubrutinib]
-0.631

Reported inhibition at 1 µM for panel of 255 wild-type kinases (Homo sapiens, UniProt Q14680), given Cn1cnc2c(F)c(Nc3ccc(Br)cc3F)c(C(=O)NOCCO)cc21 [binimetinib] ?
-1.8
